system: EKVX NSCLC; assay: NCI tumour cell line growth inhibition, 48 h
Classify as follows. Reported TGI greater than or equal to 40 µM: label 1. Reported TGI below: label 0.

Worked cases, answers included:
compound=CCCCc1ccc(-n2sc3ncc([N+](=O)[O-])cc3c2=O)cc1 answer_label="label 0"
compound=NS(=O)(=O)c1ccc(NCc2cnc3ccccc3n2)cc1 answer_label="label 1"
compound=COc1ccc2c(Cc3c4ccccc4cc4ccccc34)cncc2c1O answer_label="label 1"
compound=O=C(N=Nc1c(O)[nH]c2ccccc12)c1oc2ccccc2c1CN1CCN(c2ccccc2)CC1 answer_label="label 0"
compound=CO[C@]12C=C/C(=C(/C(=O)OCc3cccnc3)C(=O)CCCCCCCC[C@@]3(OC)C=C/C(=C(/C(=O)OCc4cccnc4)C(=O)CCCCCCCC1)O3)O2 answer_label="label 1"
compound=COc1ccc(N2C(=O)c3c(c4[nH]c5ccc(OC)cc5c4c4ccc(C(C)(C)C)cc34)C2=O)cc1 answer_label="label 1"
compound=N#CC1(Nc2ccc(-c3ccc(NC4(C#N)CCCC4)cc3)cc2)CCCC1 answer_label="label 1"
compound="Cc1cc(S(=O)(=O)NC2=NC(c3ccccc3)c3cc(Cl)ccc3N2)c(S)cc1Cl (stereo not given)" answer_label="label 1"

Please find the next compound below.
Exercise: Could you tell me if the measured TGI of Cc1cc(Cl)ccc1NC(=O)CCCC(=O)C1CCC/C1=N\NC(=O)CC#N (stereo not given) reaches 40 µM or more?
Key: label 1

* * *

test system: HCT-15 colon; assay: NCI tumour cell line growth inhibition, 48 h
Consider the following compounds; for each one, report its TGI.

Below: 2 compounds and their reported TGI.
compound=COc1ccc(-c2nc(Nc3ccc(-c4nc5ccccc5[nH]4)cc3)nc(N3CCOCC3)n2)cc1 experimental_system="HCT-15 colon" measured_result="4.78 µM"
compound="Cc1cc(Cl)ccc1NC(=O)CCCC(=O)C1CCC/C1=N\\NC(=O)CC#N (stereo not drawn)" experimental_system="HCT-15 colon" measured_result="> 100 µM"

Now for a further compound.
Quick note, TGI for Cc1nc2c(cc1C(=O)N/N=C/c1ccc([N+](=O)[O-])cc1)c(=O)n(C)c(=O)n2C landed at > 100 µM

* * *

test system: CCRF-CEM leukemia; test: NCI tumour cell line growth inhibition, 48 h
READOUT_TYPE: TGI

Hey, quick one: what's TGI for each of these?
1. COc1cc(/C=C/c2nc(N)nnc2C)cc(OC)c1OC
2. Clc1cc2c(nn1)Nc1ccccc1S2
3. CN(C)CCC=C1c2ccccc2C(C)(C)c2ccccc21
4. CO/C(=C/C(=O)C(Cl)(Cl)Cl)CC/C(=C\C(=O)C(Cl)(Cl)Cl)OC
5. COc1cc(OC)c2c(=O)c(OC)c(-c3ccc4c(c3)OCO4)oc2c1OC

Key:
["55.4 µM", "> 100 µM", "28.4 µM", "> 100 µM", "83.5 µM"]

Hey, quick one: what's TGI for each of these?
1. O=C(O)CCNC(=O)c1cc(N(CCBr)CCBr)c([N+](=O)[O-])cc1[N+](=O)[O-]
2. CC(=O)Nc1ccc(-c2nc3ccccc3s2)cc1C

Key:
1. > 100 µM
2. > 100 µM

* * *

Consider the following compounds; for each one, report its TGI.
tested on: SF-539 CNS; test: NCI tumour cell line growth inhibition, 48 h
One number for each entry, in µM.

Below: 3 compounds and their reported TGI.
compound=COc1ccc(/C=C/C(=N/NC(=O)N/N=C(/C=C/c2ccc(OC)cc2)C(C)(C)CN2CCCCC2)C(C)(C)CN2CCCCC2)cc1 experimental_system="SF-539 CNS" readout_type=TGI unit_abbrev=µM measured_result=4.11
compound="CC1(c2cccc(N)c2)C2C(=O)NC(=O)C1C(=O)NC2=O (stereo not given)" experimental_system="SF-539 CNS" readout_type=TGI unit_abbrev=µM measured_result=81.7
compound=CO[C@]12C=C/C(=C(/C(=O)OCc3cccnc3)C(=O)CCCCCCCC[C@@]3(OC)C=C/C(=C(/C(=O)OCc4cccnc4)C(=O)CCCCCCCC1)O3)O2 experimental_system="SF-539 CNS" readout_type=TGI unit_abbrev=µM measured_result=7.91

I looked up COC(=O)NC(=Nc1ccc(Oc2ccccc2)cc1NC=O)NC(=O)OC and its TGI for SF-539 CNS was 2.49

* * *

system: SNB-19 CNS; test: NCI tumour cell line growth inhibition, 48 h
READOUT_TYPE: TGI (µM)
Numbers only, in µM.

Hey, quick one: what's TGI for each of these?
1. N=C(N)SCc1cc(Cl)cc(Cl)c1O
2. C=C1CC[C@@H]2[C@](C)(COC(C)=O)[C@H](OC(C)=O)CC[C@@]2(C)[C@@H]1CC(Nc1ccc(S(=O)(=O)Nc2cc(C)on2)cc1)C1=CCOC1=O (some centres undefined)
3. CC(=O)Oc1c2c(c(CC=C(C)C)c3c1C(=O)C1=C[C@@H]4CC5C(C)(C)OC(C/C=C(/C)C(=O)O)(C4=O)[C@@]15O3)OC(C)(CCC=C(C)C)C=C2 (some centres undefined)
4. CC(=O)c1ccc(Nc2nc(Nc3ccc(F)cc3)nc(Nc3ccc(F)cc3)n2)cc1

Key:
1: 56.8; 2: 12.2; 3: 1.38; 4: 53.8

* * *

test system: PC-3 prostate; assay: NCI tumour cell line growth inhibition, 48 h
READOUT_TYPE: TGI

Below: 4 compounds and their reported TGI.
compound="COc1cc2cc(C(=O)N3CC(CCl)c4c3cc(NCCN)c3ccccc43)[nH]c2c(OC)c1OC (stereo unspecified)" measured_result="< 0.0328 µM"
compound=NNC1=N/C(=C\c2ccco2)C(=O)N1 measured_result="> 100 µM"
compound="CCOC(=O)C1=c2[nH]c3cccc4cccc(c43)n2C(=O)CC1c1ccccc1 (stereo unspecified)" measured_result="> 100 µM"
compound="O=S1(=O)NC2CCC3NS(=O)(=O)NC4CCC(N1)N4S(=O)(=O)N23 (stereo unspecified)" measured_result="> 100 µM"

Hey, quick one: what's TGI for each of these?
1. C[N+](C)(C)/N=C/c1ccc(O)c(O)c1
2. N#CCOc1ccc(/C=C/C(=O)c2ccc(Cl)cc2)cc1

Key:
1. > 100 µM
2. > 100 µM

* * *

Consider the following compounds; for each one, report its TGI.
tested on: SK-OV-3 ovarian; assay: NCI tumour cell line growth inhibition, 48 h

Below: 3 compounds and their reported TGI.
compound="O=c1c2c(c3ccccc3n1-c1ccccc1)NC(=S)NC2c1ccc(Cl)cc1 (stereo not given)" measured_result="65 µM"
compound="CSc1nc2c(nc(N)n2C2OC(COC(C)=O)C(OC(C)=O)C(OC(C)=O)C2OC(C)=O)c(=O)n1C (stereo not given)" measured_result="> 100 µM"
compound=COC(=O)c1ccc2c(c1)C(=O)c1c-2n(C)c(=O)c2cc(OC)c(OC)cc12 measured_result="> 50 µM"

Hey, quick one: what's TGI for each of these?
1. COc1ccc(CNC(C)C(=O)O)cc1 (stereo not given)
2. C=C1C(=O)O[C@@H]2[C@H]1CCC(C)=C1C=CC(=O)[C@]12C
3. COc1cc(/C=C/c2nc(N)nnc2C)cc(OC)c1OC
4. COc1cc(C(=O)C2C(=O)c3ccccc3C2C2(O)c3ccccc3CC2C(O)c2cc(OC)c(OC)c(OC)c2)cc(OC)c1OC (stereo not given)
5. Cc1ccc(NCC(=O)N2CC(=O)Nc3ccccc32)cc1
6. C[C@]12CC[C@H]3[C@@H](CCC4=CC(=O)CC[C@@]43C)[C@@H]1CC[C@@H]2C(=O)COS(=O)(=O)c1ccc(Br)cc1

Key:
> 100 µM
61.4 µM
> 65.6 µM
> 100 µM
> 100 µM
38.1 µM

Hey, quick one: what's TGI for each of these?
1. Cc1cc(C)n2c(-c3ccccc3)c(C)cc2n1
2. NCCCCCCCCCCCn1c2c(c3ccccc3c1=O)C(=O)c1ccccc1-2

Key:
1. > 100 µM
2. 34.5 µM

Hey, quick one: what's TGI for each of these?
1. COC(=O)C1=Cc2cc(OC)c(OC)cc2[C@H](c2ccc(OC)c(OC)c2)C1C(=O)OC (stereo not given in full)
2. N#Cc1ccsc1NC(=O)COC(=O)c1cccc(S(=O)(=O)N2CCc3ccccc32)c1
3. CCCCCCCCCCC/C=C\C[C@H](O)C/C=C1/C(=O)C=C[C@@H]1C/C=C\CCCC(=O)OC
4. Cc1nc2c(cc1C(=O)N/N=C/c1ccc([N+](=O)[O-])cc1)c(=O)n(C)c(=O)n2C

Key:
1: > 100 µM; 2: > 100 µM; 3: 21.5 µM; 4: > 100 µM

Hey, quick one: what's TGI for each of these?
1. CC1(C)OCC(C2OC(OC(=O)c3ccc([N+](=O)[O-])cc3)C3OC(C)(C)OC23)O1 (stereo not given)
2. CCCCCCC/C=C/[C@H]1O[C@]2(O)C(=O)C=C3C[C@@H](O[C@@H]4O[C@H](CO)[C@@H](O)C(O)[C@@H]4O)C[C@@H]3[C@H]2C=C1C (stereo not given in full)
3. O=C1CCCC(=O)N1n1c(Cc2ccccc2)n[nH]c1=O
4. COc1cc2cc(C(=O)N3CC(CCl)c4c3cc(NCCN)c3ccccc43)[nH]c2c(OC)c1OC (stereo not given)
5. O=C(Nc1c(C(=O)NC2CCCCC2)[nH]c(=O)[nH]c1=O)c1ccc(Cl)cc1

Key:
1: > 100 µM; 2: 16.4 µM; 3: > 100 µM; 4: 1.42 µM; 5: > 100 µM

Hey, quick one: what's TGI for each of these?
1. CCOC(=O)NC(C(=O)OCC)(N1CCN(c2cc3c(cc2F)c(=O)c(C(=O)O)cn3CC)CC1)C(F)(F)F (stereo not given)
2. Cc1[nH]n(C(=N)N)c(=O)c1CCO
3. CC(C)COC(=O)OC(=O)c1ccc(N(C)Cc2cnc3nc(N)nc(N)c3n2)cc1
4. c1cc(CSSCc2ccncc2)ccn1
5. CO/C(=C/C(=O)C(Cl)(Cl)Cl)CC/C(=C\C(=O)C(Cl)(Cl)Cl)OC
6. CC1=NN2C(c3ccc(C)cc3)=CSC2=NC(C)(C)C1
7. C=CCc1cc(C=C(C#N)C#N)cc(OC)c1O
8. CN(C)CC1CCC/C(=C\c2ccc(OC(=O)/C=C/c3ccccc3)cc2)C1=O (stereo not given)

Key:
1. > 100 µM
2. > 100 µM
3. > 100 µM
4. > 100 µM
5. 87.3 µM
6. > 100 µM
7. > 100 µM
8. > 50.9 µM

Hey, quick one: what's TGI for each of these?
1. CC(C)(CCN=C(N)Nc1ccccn1)c1ccc(C(F)(F)F)cc1
2. CO[C@]12C=C/C(=C(/C(=O)OCc3cccnc3)C(=O)CCCCCCCC[C@@]3(OC)C=C/C(=C(/C(=O)OCc4cccnc4)C(=O)CCCCCCCC1)O3)O2
3. O=c1c2ccccc2nc2n1C(c1ccc([N+](=O)[O-])cc1)C2(c1ccccc1)c1ccccc1 (stereo not given)
4. CN1C[C@H]2[C@@H](C1=O)[C@H](c1ccccc1)ON2C
5. COc1cccc2c3ccccc3c3nc[nH]c3c12

Key:
["30.8 µM", "> 50 µM", "> 100 µM", "> 100 µM", "> 100 µM"]

Hey, quick one: what's TGI for each of these?
1. c1cc2nnc1SCCCSc1ccc(nn1)SCCCSc1ccc(nn1)SCCCS2
2. COc1cc(CNC2=NCCC2)cc(OC)c1OC
3. N=C(N)SCc1cc(Cl)cc(Cl)c1O
4. CSc1ccc(OCC2OC2O)cc1 (stereo not given)
5. CC(=O)OCC1=C(C(=O)O)C(c2ccc3c(c2)OCO3)c2cc3c(cc2O1)OCO3 (stereo not given)
6. NC1CCC(Nc2nc(NCc3cc(Cl)ccc3O)c3ncn(C4CCCC4)c3n2)CC1 (stereo not given)
7. N#CCCN(CCC#N)c1ccc(C(N=Nc2ccccc2)=Nc2ccc(Cl)cc2)cc1

Key:
1. > 100 µM
2. > 100 µM
3. > 100 µM
4. > 100 µM
5. > 100 µM
6. 1.65 µM
7. > 100 µM
